Tested on: A-549
Experiment: SRB cell growth/viability assay, A-549
Conditions: Homo sapiens, A549, 48 h, read-out: A-549 LC50
The entries below are paired with their reported CC50.
API: value field is a number in µM; no unit string.

Answered cases to consult:
INSERT INTO measurements (compound, unitabbrev, experimentalresult) VALUES
  ('CCCCN(C)c1nccc(-c2c3cccnc3n3c(N)nccc23)n1 [Compound 28c, N′-butylmethyldeoxyvariolin]', 'µM', 23),
  ('CC(=O)Nc1nccc2c(-c3ccnc(N(C(C)=O)C(C)=O)n3)c3cccnc3n12 [Compound 23b, N′-bisacetyl-N-acetyldeoxyvariolin]', 'µM', 7.4),
  ('CC(=O)N(C(C)=O)c1nccc(-c2c3cccnc3n3c(N)nccc23)n1 [Compound 23a, N′-bisacetyldeoxyvariolin]', 'µM', 2.8),
  ('C[S+]([O-])c1nccc(-c2c3cccnc3n3c(N)nccc23)n1 (stereo not shown)', 'µM', 92);

Test system A-549; read-out CC50; what value for CC(=O)Nc1nccc(-c2c3cccnc3n3c(N)nccc23)n1 [Compound 23d, N′-acetyldeoxyvariolin] ?
3.2

====

Test system: A-549
Assay: SRB cell growth/viability assay, A-549
Settings: Homo sapiens, A549, 48 h, read-out: A-549 LC50
observedProperty: log10 CC50 (log10 of the value in µM)
All values: base-10 log of CC50 in µM.

Value lookup for log10 CC50; key = COc1nccc(-c2c3cccnc3n3c(N)nccc23)n1
0.43

// query: Nc1nccc2c(-c3ccnc(N(C(=O)/C=C/c4ccccc4)C(=O)/C=C/c4ccccc4)n3)c3cccnc3n12 [Compound 24a, N′-biscinnamoyldeoxyvariolin]
1.08

====

The entries below are paired with their reported CC50.
System: A-549
Experiment: SRB cell growth/viability assay, A-549
Conditions: Homo sapiens, A549, 48 h, read-out: A-549 LC50
API: value field is a number in µM; no unit string.

Answered cases to consult:
INSERT INTO assay_data (compound, unitabbrev, experimentalresult) VALUES
  ('CSc1nccc(-c2c3cccnc3n3c(SC)nccc23)n1 [Compound 19]', 'µM', 29),
  ('CC(=O)Nc1nccc(-c2c3cccnc3n3c(NC(C)=O)nccc23)n1 [Compound 23e, N′-acetyl-N-acetyldeoxyvariolin]', 'µM', 28),
  ('Nc1nccc2c(-c3ccnc(NCc4ccccc4)n3)c3cccnc3n12 [Compound 28d, N′-benzyldeoxyvariolin]', 'µM', 27),
  ('Nc1nccc2c(-c3ccnc(NC(=O)C(F)(F)F)n3)c3cccnc3n12 [Compound 26, N′-trifluoroacetyldeoxyvariolin]', 'µM', 27);

Value lookup for CC50; key = CC(=O)N(C(C)=O)c1nccc(-c2c3cccnc3n3c(N(C(C)=O)C(C)=O)nccc23)n1 [Compound 23c, N′-bisacetyl-N-bisacetyldeoxyvariolin]
22

// query: Nc1nccc(-c2c3c(O)ccnc3n3c(N)nccc23)n1 [Compound 1, Variolin B]
170

// query: O=C(C=Cc1ccccc1)Nc1nccc2c(-c3ccnc(N(C(=O)/C=C/c4ccccc4)C(=O)/C=C/c4ccccc4)n3)c3cccnc3n12 [Compound 24b, N′-biscinnamoyl-N-cinnamoyldeoxyvariolin]
75
